- Test system: EKVX
- PROTOCOL DETAILS: NCI tumour cell line growth inhibition, 48 h
Activity calls are given as the source filed them. Cut-off read from the data, not from the text of the source: active = GI50 up to about 1.1 µM and inactive = higher.
Outcome (select one): active, inactive

How did this test come out for "O=C(Nc1nc(C23CC4CC(CC(C4)C2)C3)cs1)c1cc2cc([N+](=O)[O-])ccc2oc1=O" ?
inactive

How did this test come out for CCC12C=CCN3CC[C@]4(C(=C(C(=O)OC)[C@@H]1Nc1ncnc5c1ncn5C1OC(COC(C)=O)C(OC(C)=O)C1OC(C)=O)Nc1ccccc14)C32 (stereo partly specified) ?
inactive

How did this test come out for "N/C(=N\Nc1cccc(Cl)c1)c1cccnc1" ?
inactive

How did this test come out for "O=P(O)(O)CN1CCNCCN(CP(=O)(O)O)CCN(CP(=O)(O)O)CCNCC1" ?
inactive

How did this test come out for "COC(=O)C1=C(C(=O)OC)SC2(S1)C(C(=O)OC)=C(C(=O)OC)Sc1c2ss/c1=N\c1ccc(Cl)cc1" ?
inactive

How did this test come out for "COc1cc(Nc2cc(Cl)cc(Cl)c2)nc(N)n1" ?
inactive

How did this test come out for c1ccc2c(c1)N=C(c1ccc3ccccc3c1)CC(c1cccc3ccccc13)S2 (stereo unspecified) ?
inactive

How did this test come out for N=C(N)N/N=C(/CCN1CCCC1)CC(c1ccccc1)c1c(O)c2ccccc2oc1=O (stereo unspecified) ?
inactive

How did this test come out for "COc1cccc2nc3ccccc3nc12" ?
inactive

How did this test come out for "Clc1ccc(SCCSCCCCCCCCCCSCCSc2ccc(Cl)cc2)cc1" ?
inactive

How did this test come out for "Oc1ccc2ccccc2c1/N=N/c1cc(Cl)ccc1Cl" ?
inactive

How did this test come out for CC1(C(=O)O)CCOc2ccccc21 (stereo unspecified) ?
inactive

How did this test come out for C=C1CC2(C[C@@H](c3ccccc3)O[C@@H](c3ccccc3)C2)OC1=O (stereo partly specified) ?
inactive

How did this test come out for CC1OC(O)CC(N(C)C)C1O.CC1OC(O)CCC1O.CCC1CC(O)c2c(O)c3c(c(O)c2C1O)C(=O)c1cccc(O)c1C3=O (stereo unspecified) ?
active

How did this test come out for "CCCCc1c2c(nc3c1CCCC3=O)CCCC2" ?
inactive

How did this test come out for "Cc1ccc(SCN2CCCCC2)cc1.O=C(Cl)c1ccc([N+](=O)[O-])cc1" ?
inactive

How did this test come out for "CC(C)(C)OC(=O)NCCC(N)=S" ?
inactive

How did this test come out for "CC1(C)CC(=O)c2c(nc3ccc4ccccc4c3c2-c2ccc(NC(=O)CCCC(=O)Nc3ccc(-c4c5c(nc6ccc7ccccc7c46)CC(C)(C)CC5=O)cc3)cc2)C1" ?
inactive

How did this test come out for COc1ccc(/C=C2\CCC(CCN3CCOCC3)C2=O)cc1 (stereo unspecified) ?
inactive

How did this test come out for "CCOC(=O)c1nc2cc(N3CCOCC3)c(F)cc2[nH]c1=O" ?
inactive

How did this test come out for CC(=O)c1ccc(NC(=O)C(=O)C(C#N)CC(C)(C)C=O)cc1 (stereo unspecified) ?
inactive

* * *

- System: SF-539
- PROTOCOL DETAILS: NCI tumour cell line growth inhibition, 48 h
The source made the active and inactive calls. Cut-off read from the data, not from the text of the source: active = GI50 up to about 1.1 µM and inactive = higher.
PROPERTY: GI50

Which measured GI50 value corresponds to "Cc1ccc(C[N+](C)(C)N)cc1C" ?
> 10 µM (inactive)

Which measured GI50 value corresponds to CC(C)c1cccc(C(C)C)c1NC(=O)C(=O)C1SC(=S)NC1=O (stereo not drawn) ?
> 100 µM (inactive)

Which measured GI50 value corresponds to CCOC(=O)[C@@H]1ON2O[C@@H](OC3CCCCC3c3ccccc3)C[C@H]3OC(=O)[C@@H]1C32 (stereo partly drawn) ?
> 100 µM (inactive)

Which measured GI50 value corresponds to "Oc1c(CN2CCOCC2)ccc(CN2CCOCC2)c1O" ?
25.7 µM (inactive)

Which measured GI50 value corresponds to "Cc1[nH]c2ccccc2c1CC/C(=N\Nc1ccccc1)c1ccccc1" ?
> 100 µM (inactive)

Which measured GI50 value corresponds to Cc1cccc2c1Oc1cc(Cl)ccc1C2NC(=O)CN(C)C (stereo not drawn) ?
80.5 µM (inactive)

Which measured GI50 value corresponds to "O=C(CN1c2ccccc2Sc2ccccc21)n1cnc2ccccc21" ?
> 100 µM (inactive)

Which measured GI50 value corresponds to CCN(CC)CCC(=O)NC1c2ccc(Cl)cc2Oc2c(C)cccc21 (stereo not drawn) ?
13.2 µM (inactive)

Which measured GI50 value corresponds to CCN1C[C@]2(C)CC[C@H](OC)C34C5C[C@@H]6[C@@H](OC)C[C@@](OC)(C5[C@H]6OCc5ccccc5)C(C13)[C@H](OC(C)=O)[C@@H]42 (stereo partly drawn) ?
> 100 µM (inactive)

Which measured GI50 value corresponds to "CCOC(=O)COc1cc(-c2ccccc2F)nc2cc3c(cc12)OCO3" ?
> 100 µM (inactive)

Which measured GI50 value corresponds to "CC1(C)CC(=O)c2c(nc3ccc4ccccc4c3c2-c2ccc(NC(=O)CCCC(=O)Nc3ccc(-c4c5c(nc6ccc7ccccc7c46)CC(C)(C)CC5=O)cc3)cc2)C1" ?
> 100 µM (inactive)

Which measured GI50 value corresponds to "O=c1oc2c3ccc4ccccc4c3n(CCN3CCCCC3)c2c2ccccc12" ?
17.1 µM (inactive)

Which measured GI50 value corresponds to CC1OC(OC2C(O[C@H]3CC[C@@]4(C)C(=CC[C@H]5[C@@H]6C[C@@H]7O[C@]8(CC[C@@H](CO)CO8)[C@@H](C)[C@@H]7[C@@]6(C)CC[C@@H]54)C3)OC(CO)C(O)C2OC2OC(CO)C(O)C(O)C2O)C(O)C(O)C1O (stereo partly drawn) ?
1.6 µM (inactive)

Which measured GI50 value corresponds to COc1ccc(N[S+]([O-])C2CCCCC2)cc1 (stereo not drawn) ?
> 100 µM (inactive)

Which measured GI50 value corresponds to "COC(=O)[C@H](C)NC(=O)C1(CNC(=O)[C@H](C)NC(=O)OC(C)(C)C)Cc2ccccc2-c2ccccc2C1" ?
27 µM (inactive)

Which measured GI50 value corresponds to "COP(=O)(Cc1ccccc1)Cc1ccccc1" ?
> 100 µM (inactive)

Which measured GI50 value corresponds to "CCN(CC)CCCNc1n[n+]([O-])c2ccccc2[n+]1[O-]" ?
20.7 µM (inactive)

Which measured GI50 value corresponds to "O=C1/C(=C/c2ccccc2)CN(C(=O)Oc2ccc(Cl)cc2)C/C1=C\c1ccccc1" ?
2.36 µM (inactive)
